- Target Entity: human GLP-1 receptor (human, UniProt P43220 24-463)
- Assay Notes: cell-based or functional assay
Where no end group is shown, it is not given here.
Endpoint Label: GLP-1 receptor activation relative to Val^8-GLP-1 (7-37) OH

>  <Binder>
HVEGTFTSDVSSYFEEQAAKEFIAWLVKGRG-OH [Val^8-Phe^20-Glu^22-GLP-1 (7-37) OH]

>  <Result>
2.7 relative to Val^8-GLP-1 (7-37) OH

$$$$
>  <Binder>
HVEGTFTSDVSSYLEHQAAKEFIAWLVKGRG-OH [Val^8-His^22-GLP-1 (7-37) OH]

>  <Result>
0.3 relative to Val^8-GLP-1 (7-37) OH

$$$$
>  <Binder>
HVEGTFTSDVSSYLEGQAAKEFIAWLKNGRG-OH [Val^8-Lys^33-Asn^34-GLP-1 (7-37) OH]

>  <Result>
0.2 relative to Val^8-GLP-1 (7-37) OH

$$$$
>  <Binder>
HVEGTWTSDVSSYLEGQAAKEFIAWLVKGRG-OH [Val^8-Trp^12-GLP-1 (7-37) OH]

>  <Result>
1.1 relative to Val^8-GLP-1 (7-37) OH

$$$$
>  <Binder>
HVEGTFTSDVSSYLEGQAAKEFIAWLKVGRG-OH [Val^8-Lys^33-Val^34-GLP-1 (7-37) OH]

>  <Result>
0.2 relative to Val^8-GLP-1 (7-37) OH

$$$$
>  <Binder>
HVEGTFTSDLSSYLEGQAAEEFIAWLVKGRG-OH [Val^8-Leu^16-Glu^26-GLP-1 (7-37) OH]

>  <Result>
0.5 relative to Val^8-GLP-1 (7-37) OH

$$$$
>  <Binder>
HVEGTFTSDVSSYLEDQAAKEFIAWLVKGRG-OH [Val^8-Asp^22-GLP-1 (7-37) OH]

>  <Result>
0.9 relative to Val^8-GLP-1 (7-37) OH

$$$$
>  <Binder>
HVEGTFTSDVSIYLEEQAAKEFIAWLVKGRG-OH [Val^8-Ile^18-Glu^22-GLP-1 (7-37) OH]

>  <Result>
4 relative to Val^8-GLP-1 (7-37) OH

$$$$
>  <Binder>
HVEGTFTSDVSSYLEEQALKEFIAWLVKGRG-OH [Val^8-Glu^22-Leu^25-GLP-1 (7-37) OH]

>  <Result>
2.8 relative to Val^8-GLP-1 (7-37) OH

$$$$
>  <Binder>
HVEGTFTSDVSSYLEGQAAKEFIAWLVKHRG-OH [Val^8-His^35-GLP-1 (7-37) OH]

>  <Result>
0.9 relative to Val^8-GLP-1 (7-37) OH

$$$$
>  <Binder>
HVEGTFTSDVSSWLEEQAAKEFIAWLVKGRG-OH [Val^8-Trp^19-Glu^22-GLP-1 (7-37) OH]

>  <Result>
3.2 relative to Val^8-GLP-1 (7-37) OH

$$$$
>  <Binder>
HGEGTFTSDVSSYLEGQAAKEFIAWLVKGRG-OH [Gly^8-GLP-1 (7-37) OH]

>  <Result>
1.7 relative to Val^8-GLP-1 (7-37) OH

$$$$
>  <Binder>
HVEGTFTSDWSSYLEEQAVKEFIAWLIKGRG-OH [Val^8-Trp^16-Glu^22-Val^25-Ile^33-GLP-1 (7-37) OH]

>  <Result>
5 relative to Val^8-GLP-1 (7-37) OH

$$$$
